Target: Cholinesterase (Equus caballus)
Decision: IC50 beneath 30 µM gives MET; IC50 meeting or exceeding 30 µM gives NOT MET.

Worked set:
Threshold test, IC50 < 30 µM: `CC(C)C1CCN(c2nccc(NC(c3ccccc3)c3ccccc3)n2)CC1`
NOT MET

Threshold test, IC50 < 30 µM: `CC(C)C1CCN(c2nccc(NCc3cccc4ccccc34)n2)CC1`
MET

Threshold test, IC50 < 30 µM: `c1ccc2c(CNc3ccnc(N4CCN(C5CCCCC5)CC4)n3)cccc2c1`
MET

Next:
Threshold test, IC50 < 30 µM: `CC1CCN(c2nccc(NC(c3ccccc3)c3ccccc3)n2)CC1`
NOT MET

Threshold test, IC50 < 30 µM: `OCCN1CCN(c2nccc(NC(c3ccccc3)c3ccccc3)n2)CC1`
NOT MET

* * *

Observed pIC50 values for Acetylcholinesterase (Homo sapiens) are listed in what follows.
# pIC50 = -log10(concentration in molar units)

Below: 5 compounds and their reported pIC50.
Sample `OCCN1CCN(c2nccc(NCc3cccc4ccccc34)n2)CC1` — what was its pIC50?
5.01

Sample `c1ccc2c(CNc3ccnc(N4CCNCC4)n3)cccc2c1` — what was its pIC50?
4.76

Sample `CC(C)N1CCN(c2nccc(NCc3cccc4ccccc34)n2)CC1` — what was its pIC50?
4.80

Sample `OCCN1CCN(c2nccc(NC(c3ccccc3)c3ccccc3)n2)CC1` — what was its pIC50?
4.67

Sample `COCCN1CCN(c2nccc(NC(c3ccccc3)c3ccccc3)n2)CC1` — what was its pIC50?
4.41

Next:
Sample `CC(C)(C)OC(=O)N1CCN(c2nccc(NCc3cccc4ccccc34)n2)CC1` — what was its pIC50?
4.29

Sample `CC(C)C1CCN(c2nccc(NC(c3ccccc3)c3ccccc3)n2)CC1` — what was its pIC50?
4.37

Sample `c1ccc2c(CNc3ccnc(N4CCN(C5CCCCC5)CC4)n3)cccc2c1` — what was its pIC50?
5.10

Sample `CC(C)N1CCN(c2nccc(NC(c3ccccc3)c3ccccc3)n2)CC1` — what was its pIC50?
4.69

Sample `CC(=O)N1CCN(c2nccc(NCc3cccc4ccccc34)n2)CC1` — what was its pIC50?
4.86

Sample `CN1CCN(c2nccc(NC(c3ccccc3)c3ccccc3)n2)CC1` — what was its pIC50?
4.86

Sample `CCCN1CCN(c2nccc(NC(c3ccccc3)c3ccccc3)n2)CC1` — what was its pIC50?
4.84

Sample `c1ccc(C(Nc2ccnc(N3CCN(C4CCCCC4)CC3)n2)c2ccccc2)cc1` — what was its pIC50?
5.00

Sample `CC(=O)N1CCN(c2nccc(NC(c3ccccc3)c3ccccc3)n2)CC1` — what was its pIC50?
4.54

Sample `COCCN1CCN(c2nccc(NCc3cccc4ccccc34)n2)CC1` — what was its pIC50?
4.93

* * *

Molecular target: Cholinesterase (Equus caballus, UniProt P81908)
Sequence (P81908 whole entry): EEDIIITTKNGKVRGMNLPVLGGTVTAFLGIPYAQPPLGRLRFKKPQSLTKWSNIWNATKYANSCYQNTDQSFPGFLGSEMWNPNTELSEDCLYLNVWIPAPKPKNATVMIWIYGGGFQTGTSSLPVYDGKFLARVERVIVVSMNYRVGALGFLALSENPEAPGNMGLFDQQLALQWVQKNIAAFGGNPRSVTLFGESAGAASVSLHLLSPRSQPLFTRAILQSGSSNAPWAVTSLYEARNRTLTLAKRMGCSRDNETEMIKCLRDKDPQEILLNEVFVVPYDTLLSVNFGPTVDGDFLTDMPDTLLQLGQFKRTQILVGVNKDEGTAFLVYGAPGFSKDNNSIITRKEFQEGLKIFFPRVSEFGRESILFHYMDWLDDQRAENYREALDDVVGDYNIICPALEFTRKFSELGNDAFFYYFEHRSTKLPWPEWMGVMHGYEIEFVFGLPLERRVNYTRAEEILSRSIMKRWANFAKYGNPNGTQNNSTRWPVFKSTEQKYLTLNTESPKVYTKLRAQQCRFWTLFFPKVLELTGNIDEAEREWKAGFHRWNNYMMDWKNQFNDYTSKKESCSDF
metric: IC50 (nM)
API: value field is a number in nM; no unit string.

Sample `CC1CCN(c2nccc(NCc3cccc4ccccc34)n2)CC1` — what was its IC50?
2200

* * *

Biological target: Cholinesterase (Equus caballus)
metric: IC50

Please tell me: IC50 of `CC(C)(C)OC(=O)N1CCN(c2nccc(NC(c3ccccc3)c3ccccc3)n2)CC1` , system Cholinesterase (Equus caballus)?
> 100 µM

Please tell me: IC50 of `c1ccc(C(Nc2ccnc(N3CCNCC3)n2)c2ccccc2)cc1` , system Cholinesterase (Equus caballus)?
> 100 µM

Please tell me: IC50 of `CC(C)(C)OC(=O)N1CCN(c2nccc(NCc3cccc4ccccc34)n2)CC1` , system Cholinesterase (Equus caballus)?
> 100 µM
